target: T1, Recombinant, Human EphA2 with C-terminal hexahistidine appended (human, UniProt P29317 25-534); experiment: BLI (Octet Red 96), EphA2-His on anti-His5 sensors, 4 ug/ml Fab-PEG-DSPE conjugate, slope of association curve 2-10 s relative to Fab 11 conjugate
T1 construct: Captured on anti-His5 sensors; also called his-tagged recombinant, human EphA
T1 sequence (P29317 other isoform, or with tags, fused parts or gaps limits assumed): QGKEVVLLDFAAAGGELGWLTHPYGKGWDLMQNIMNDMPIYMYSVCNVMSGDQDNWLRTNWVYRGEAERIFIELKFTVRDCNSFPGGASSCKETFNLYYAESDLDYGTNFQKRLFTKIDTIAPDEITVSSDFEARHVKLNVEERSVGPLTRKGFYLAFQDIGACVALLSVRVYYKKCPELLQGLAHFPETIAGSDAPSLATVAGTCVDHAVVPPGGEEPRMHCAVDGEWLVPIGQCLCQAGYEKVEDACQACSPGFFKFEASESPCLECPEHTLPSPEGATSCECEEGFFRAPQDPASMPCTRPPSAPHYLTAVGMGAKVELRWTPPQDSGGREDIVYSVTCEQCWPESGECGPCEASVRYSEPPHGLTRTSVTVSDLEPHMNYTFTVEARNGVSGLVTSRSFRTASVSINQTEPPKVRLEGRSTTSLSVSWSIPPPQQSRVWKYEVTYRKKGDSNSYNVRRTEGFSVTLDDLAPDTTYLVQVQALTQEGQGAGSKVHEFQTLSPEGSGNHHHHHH
Reported Binding strength, % of wild type conjugate values for the following binders.
Attribute measured: Binding strength, % of wild type conjugate

Binder | Result
anti-EphA2 Fab 18 (IgG1 G44L, H172E, F174C, C233S heavy chain; lambda G100L, T162D, S176C, C214S light chain), Fab-PEG-DSPE conjugate (Fab, V domains shown, mal-PEG(2000)-DSPE linker conjugated to the C-terminal cysteine of the heavy chain (Cys in DKTHTCAA)) VH: QVQLVQSGGGLVQPGGSLRLSCAASGFTFSSYAMHWVRQAPGKLLEWVTVISPDGHNTYYADSVKGRFTISRDNSKNTLYLQMNSLRAEDTAVYYCARASVGATGPFDIWGQGTLVTVSS VL: SSELTQPPSVSVAPGQTVTITCQGDSLRSYYASWYQQKPGTAPKLLIYGENNRPSGVPDRFSGSSSGTSASLTITGAQAEDEADYYCNSRDSSGTHLTVFGLGTKLTVLG | 75.5 % of wild type conjugate
anti-EphA2 Fab 12 (IgG1 G44C, C233S heavy chain; lambda G100C, C214S light chain), Fab-PEG-DSPE conjugate (Fab, V domains shown, mal-PEG(2000)-DSPE linker conjugated to the C-terminal cysteine of the heavy chain (Cys in DKTHTCAA)) VH: QVQLVQSGGGLVQPGGSLRLSCAASGFTFSSYAMHWVRQAPGKCLEWVTVISPDGHNTYYADSVKGRFTISRDNSKNTLYLQMNSLRAEDTAVYYCARASVGATGPFDIWGQGTLVTVSS VL: SSELTQPPSVSVAPGQTVTITCQGDSLRSYYASWYQQKPGTAPKLLIYGENNRPSGVPDRFSGSSSGTSASLTITGAQAEDEADYYCNSRDSSGTHLTVFGCGTKLTVLG | 108 % of wild type conjugate
anti-EphA2 Fab 15 (IgG1 H172E, F174C, C233S heavy chain; lambda T162D, S176C, C214S light chain), Fab-PEG-DSPE conjugate (Fab, V domains shown, mal-PEG(2000)-DSPE linker conjugated to the C-terminal cysteine of the heavy chain (Cys in DKTHTCAA)) VH: QVQLVQSGGGLVQPGGSLRLSCAASGFTFSSYAMHWVRQAPGKGLEWVTVISPDGHNTYYADSVKGRFTISRDNSKNTLYLQMNSLRAEDTAVYYCARASVGATGPFDIWGQGTLVTVSS VL: SSELTQPPSVSVAPGQTVTITCQGDSLRSYYASWYQQKPGTAPKLLIYGENNRPSGVPDRFSGSSSGTSASLTITGAQAEDEADYYCNSRDSSGTHLTVFGGGTKLTVLG | 86 % of wild type conjugate
anti-EphA2 Fab 13 (IgG1 F174C, C233S heavy chain; lambda S176C, C214S light chain), Fab-PEG-DSPE conjugate (Fab, V domains shown, mal-PEG(2000)-DSPE linker conjugated to the C-terminal cysteine of the heavy chain (Cys in DKTHTCAA)) VH: QVQLVQSGGGLVQPGGSLRLSCAASGFTFSSYAMHWVRQAPGKGLEWVTVISPDGHNTYYADSVKGRFTISRDNSKNTLYLQMNSLRAEDTAVYYCARASVGATGPFDIWGQGTLVTVSS VL: SSELTQPPSVSVAPGQTVTITCQGDSLRSYYASWYQQKPGTAPKLLIYGENNRPSGVPDRFSGSSSGTSASLTITGAQAEDEADYYCNSRDSSGTHLTVFGGGTKLTVLG | 96.9 % of wild type conjugate
anti-EphA2 Fab 16 (IgG1 H172F, F174C, C233S heavy chain; lambda T162L, S174V, S176C, C214S light chain), Fab-PEG-DSPE conjugate (Fab, V domains shown, mal-PEG(2000)-DSPE linker conjugated to the C-terminal cysteine of the heavy chain (Cys in DKTHTCAA)) VH: QVQLVQSGGGLVQPGGSLRLSCAASGFTFSSYAMHWVRQAPGKGLEWVTVISPDGHNTYYADSVKGRFTISRDNSKNTLYLQMNSLRAEDTAVYYCARASVGATGPFDIWGQGTLVTVSS VL: SSELTQPPSVSVAPGQTVTITCQGDSLRSYYASWYQQKPGTAPKLLIYGENNRPSGVPDRFSGSSSGTSASLTITGAQAEDEADYYCNSRDSSGTHLTVFGGGTKLTVLG | 85 % of wild type conjugate
anti-EphA2 Fab 17 (IgG1 G44L, F174C, C233S heavy chain; lambda G100L, S176C, C214S light chain), Fab-PEG-DSPE conjugate (Fab, V domains shown, mal-PEG(2000)-DSPE linker conjugated to the C-terminal cysteine of the heavy chain (Cys in DKTHTCAA)) VH: QVQLVQSGGGLVQPGGSLRLSCAASGFTFSSYAMHWVRQAPGKLLEWVTVISPDGHNTYYADSVKGRFTISRDNSKNTLYLQMNSLRAEDTAVYYCARASVGATGPFDIWGQGTLVTVSS VL: SSELTQPPSVSVAPGQTVTITCQGDSLRSYYASWYQQKPGTAPKLLIYGENNRPSGVPDRFSGSSSGTSASLTITGAQAEDEADYYCNSRDSSGTHLTVFGLGTKLTVLG | 89.7 % of wild type conjugate
anti-EphA2 Fab 19 (IgG1 G44L, H172F, F174C, C233S heavy chain; lambda G100L, T162L, S174V, S176C, C214S light chain), Fab-PEG-DSPE conjugate (Fab, V domains shown, mal-PEG(2000)-DSPE linker conjugated to the C-terminal cysteine of the heavy chain (Cys in DKTHTCAA)) VH: QVQLVQSGGGLVQPGGSLRLSCAASGFTFSSYAMHWVRQAPGKLLEWVTVISPDGHNTYYADSVKGRFTISRDNSKNTLYLQMNSLRAEDTAVYYCARASVGATGPFDIWGQGTLVTVSS VL: SSELTQPPSVSVAPGQTVTITCQGDSLRSYYASWYQQKPGTAPKLLIYGENNRPSGVPDRFSGSSSGTSASLTITGAQAEDEADYYCNSRDSSGTHLTVFGLGTKLTVLG | 96.8 % of wild type conjugate
anti-EphA2 Fab 14 (IgG1 G44C, F174C, C233S heavy chain; lambda G100C, S176C, C214S light chain), Fab-PEG-DSPE conjugate (Fab, V domains shown, mal-PEG(2000)-DSPE linker conjugated to the C-terminal cysteine of the heavy chain (Cys in DKTHTCAA)) VH: QVQLVQSGGGLVQPGGSLRLSCAASGFTFSSYAMHWVRQAPGKCLEWVTVISPDGHNTYYADSVKGRFTISRDNSKNTLYLQMNSLRAEDTAVYYCARASVGATGPFDIWGQGTLVTVSS VL: SSELTQPPSVSVAPGQTVTITCQGDSLRSYYASWYQQKPGTAPKLLIYGENNRPSGVPDRFSGSSSGTSASLTITGAQAEDEADYYCNSRDSSGTHLTVFGCGTKLTVLG | 105 % of wild type conjugate
